# target_of_assay: T1, Nei (endonuclease VIII) (Escherichia coli, UniProt P50465 2-263)
# T1 sequence: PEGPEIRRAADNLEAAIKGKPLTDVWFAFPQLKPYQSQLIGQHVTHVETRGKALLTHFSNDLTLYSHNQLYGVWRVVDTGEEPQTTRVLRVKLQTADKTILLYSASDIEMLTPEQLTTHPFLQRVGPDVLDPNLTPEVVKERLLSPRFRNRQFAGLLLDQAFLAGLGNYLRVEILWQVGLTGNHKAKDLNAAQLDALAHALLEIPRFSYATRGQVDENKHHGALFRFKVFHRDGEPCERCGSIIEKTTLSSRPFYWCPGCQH
# test_name: MST; MST: 50 mM Tris-HCl pH 7.5, 50 mM KCl, 1 mM EDTA, 1 mM DTT, 7% glycerol, 25 C, 10 min, 0.5 uM DNA; authors call Kd values estimates only
# measurement_setup: protein: recombinant; tags: none (native form without tags); G-quadruplex
readout_type: pKd
Friendly reminder that pKd comes from taking -log10 of the concentration in mol/L.

Task: Complete the entry with pKd for TTAGGGTTAGGGTTAGGGTTAGGGTT (structured_DNA) [Q4]
Output: 6.05
